Measured values drawn from patent US20250230240A1 for this set.

biological target: Recombinant human Vγ9Vδ2-Fc fusion protein (human) (UniProt Q99603); assay: BLI (Octet), single VHH on recombinant Vγ9Vδ2 TCR protein
What Kd was measured for each of the following?
Your answer should be a plain number; it is taken to be in nM.

For VHH 5C8var1-Y105F/G108A (VHH) VHH: EVQLLESGGGSVQPGGSLRLSCAASGRPFSNYAMSWFRQAPGKEREFVSAISWSGGSTSYADSVKGRFTISRDNSKNTLYLQMNSLRAEDTAVYYCAAQFSGADFGFARLGIRGYEYDYWGQGTQVTVSS , write its Kd.
9.2

For VHH 5C8var1-Y105F (VHH) VHH: EVQLLESGGGSVQPGGSLRLSCAASGRPFSNYAMSWFRQAPGKEREFVSAISWSGGSTSYADSVKGRFTISRDNSKNTLYLQMNSLRAEDTAVYYCAAQFSGADFGFGRLGIRGYEYDYWGQGTQVTVSS , write its Kd.
0.74

For VHH 5C8var1-Y105F/R109K (VHH) VHH: EVQLLESGGGSVQPGGSLRLSCAASGRPFSNYAMSWFRQAPGKEREFVSAISWSGGSTSYADSVKGRFTISRDNSKNTLYLQMNSLRAEDTAVYYCAAQFSGADFGFGKLGIRGYEYDYWGQGTQVTVSS , write its Kd.
0.82

For VHH 5C8var1-Y105F/R109A (VHH) VHH: EVQLLESGGGSVQPGGSLRLSCAASGRPFSNYAMSWFRQAPGKEREFVSAISWSGGSTSYADSVKGRFTISRDNSKNTLYLQMNSLRAEDTAVYYCAAQFSGADFGFGALGIRGYEYDYWGQGTQVTVSS , write its Kd.
1.2
